Data credit: ChEMBL document CHEMBL2157958

Molecular target: MDR1 (P-glycoprotein, ABCB1) (Homo sapiens)
Assay: Inhibition of MDR1 in human Caco2 cells assessed as calcein accumulation after 30 mins by fluorescence assay
Assay type: cell-based
Set-up: concentration or dose not given beside the values
Details: Caco-2 cells
Let's look at some compounds and their measured inhibition at 0.5 h.

COMPOUND: CCOC(=O)C1=C(C)N=C(C)/C(=C(/O)OCC)C1c1c(-c2ccccc2Cl)noc1C (stereo not given)
inhibition at 0.5 h (%): 10.9
//
COMPOUND: CCOC(=O)C1=C(C)N=C(C)/C(=C(/O)OCC)C1c1c(C)noc1CCc1ccc(-c2ccccc2)cc1 (stereo not given)
inhibition at 0.5 h (%): 18.6
//
COMPOUND: CCOC(=O)C1=C(C)N=C(C)/C(=C(/O)OCC)C1c1c(-c2cc(Cl)ccc2OC)noc1C (stereo not given)
inhibition at 0.5 h (%): 15
//
COMPOUND: CCOC(=O)C1=C(C)N=C(C)/C(=C(/O)OCC)C1c1c(-c2ccc(Cl)cc2)noc1C (stereo not given)
inhibition at 0.5 h (%): 11.7
//
COMPOUND: CCOC(=O)C1=C(C)N=C(C)/C(=C(/O)OCC)C1c1c(C)noc1CCc1cccc2ccccc12 (stereo not given)
inhibition at 0.5 h (%): 19

* * *

Molecular target: MDR1 (P-glycoprotein, ABCB1) (Homo sapiens, UniProt P08183)
Sequence (P08183 whole entry): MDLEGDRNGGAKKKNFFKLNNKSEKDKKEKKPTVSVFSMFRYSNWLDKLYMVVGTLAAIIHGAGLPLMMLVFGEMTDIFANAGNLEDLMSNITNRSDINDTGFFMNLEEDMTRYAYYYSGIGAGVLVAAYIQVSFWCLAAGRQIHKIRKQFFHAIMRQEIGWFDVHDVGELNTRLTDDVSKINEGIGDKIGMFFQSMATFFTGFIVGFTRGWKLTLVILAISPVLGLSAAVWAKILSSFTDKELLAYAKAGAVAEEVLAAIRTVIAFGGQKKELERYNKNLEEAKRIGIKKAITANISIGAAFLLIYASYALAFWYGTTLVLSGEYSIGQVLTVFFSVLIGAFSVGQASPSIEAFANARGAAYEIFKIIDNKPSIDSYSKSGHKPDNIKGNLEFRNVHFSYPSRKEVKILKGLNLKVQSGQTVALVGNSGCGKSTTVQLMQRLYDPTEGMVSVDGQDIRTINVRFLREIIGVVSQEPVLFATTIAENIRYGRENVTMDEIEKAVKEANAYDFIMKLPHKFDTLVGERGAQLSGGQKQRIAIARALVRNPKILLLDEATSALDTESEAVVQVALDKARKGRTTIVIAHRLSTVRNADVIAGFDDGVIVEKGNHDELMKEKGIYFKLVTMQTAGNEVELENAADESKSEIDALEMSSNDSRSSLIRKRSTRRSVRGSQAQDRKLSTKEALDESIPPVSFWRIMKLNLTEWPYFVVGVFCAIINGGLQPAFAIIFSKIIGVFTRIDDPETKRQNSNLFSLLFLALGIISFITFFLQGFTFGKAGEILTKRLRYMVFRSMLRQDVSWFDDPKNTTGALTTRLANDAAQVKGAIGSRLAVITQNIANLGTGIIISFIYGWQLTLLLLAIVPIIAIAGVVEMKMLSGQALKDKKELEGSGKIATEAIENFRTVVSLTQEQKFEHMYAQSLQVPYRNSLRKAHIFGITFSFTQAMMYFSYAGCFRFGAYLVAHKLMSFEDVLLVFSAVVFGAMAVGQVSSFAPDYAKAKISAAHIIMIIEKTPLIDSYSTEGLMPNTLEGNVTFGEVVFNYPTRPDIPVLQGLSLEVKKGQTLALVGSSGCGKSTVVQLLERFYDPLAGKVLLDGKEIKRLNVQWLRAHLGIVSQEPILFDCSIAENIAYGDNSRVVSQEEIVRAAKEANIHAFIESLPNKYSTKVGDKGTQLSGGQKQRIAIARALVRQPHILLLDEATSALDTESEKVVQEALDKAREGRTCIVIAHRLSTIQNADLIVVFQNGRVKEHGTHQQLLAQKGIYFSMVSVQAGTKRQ
Assay: Inhibition of MDR1 in human Caco2 cells assessed as calcein accumulation after 30 mins by fluorescence assay
Type: cell-based
Set-up: concentration or dose not given beside the values
Conditions: Caco-2 cells
Let's look at some compounds and their measured inhibition at 0.5 h.

COMPOUND: CCOC(=O)C1=C(C)N=C(C)/C(=C(/O)OCC)C1c1c(-c2ccccc2)noc1C(C)C (configuration not stated)
SYSTEM_UNDER_TEST: MDR1 (P-glycoprotein, ABCB1) (Homo sapiens, UniProt P08183)
inhibition at 0.5 h: 38.4%

COMPOUND: CCOC(=O)C1=C(C)N=C(C)/C(=C(/O)OCC)C1c1c(-c2cccc(Cl)c2)noc1C (configuration not stated)
SYSTEM_UNDER_TEST: MDR1 (P-glycoprotein, ABCB1) (Homo sapiens, UniProt P08183)
inhibition at 0.5 h: 26.8%

COMPOUND: CCOC(=O)C1=C(C)N=C(C)/C(=C(/O)OCC)C1c1c(-c2ccccc2)noc1C (configuration not stated)
SYSTEM_UNDER_TEST: MDR1 (P-glycoprotein, ABCB1) (Homo sapiens, UniProt P08183)
inhibition at 0.5 h: 48.9%

COMPOUND: CCOC(=O)C1=C(C)N=C(C)/C(=C(/O)OCC)C1c1c(-c2ccccc2)noc1CCc1ccccc1 (configuration not stated)
SYSTEM_UNDER_TEST: MDR1 (P-glycoprotein, ABCB1) (Homo sapiens, UniProt P08183)
inhibition at 0.5 h: 27.6%

COMPOUND: CCOC(=O)C1=C(C)NC(C)=C(C(=O)OCC)C1c1c(C)noc1C(C)Cc1cccc(Br)c1 (racemic)
SYSTEM_UNDER_TEST: MDR1 (P-glycoprotein, ABCB1) (Homo sapiens, UniProt P08183)
inhibition at 0.5 h: 61.2%

COMPOUND: CCOC(=O)C1=C(C)N=C(C)/C(=C(/O)OCC)C1c1c(-c2ccccc2OC)noc1C (configuration not stated)
SYSTEM_UNDER_TEST: MDR1 (P-glycoprotein, ABCB1) (Homo sapiens, UniProt P08183)
inhibition at 0.5 h: 32.8%

COMPOUND: CCOC(=O)C1=C(C)NC(C)=C(C(=O)OCC)C1c1c(C)noc1C(C)Cc1cccc2ccccc12 (configuration not stated)
SYSTEM_UNDER_TEST: MDR1 (P-glycoprotein, ABCB1) (Homo sapiens, UniProt P08183)
inhibition at 0.5 h: 38.3%
